TARGET: GST fusion human ERK2 protein (Homo sapiens, UniProt P28482)
Construct: purchased Carna Biosciences, Inc; host or cells: E. coli expression system
Sequence (P28482 whole entry, the tested form may be a part): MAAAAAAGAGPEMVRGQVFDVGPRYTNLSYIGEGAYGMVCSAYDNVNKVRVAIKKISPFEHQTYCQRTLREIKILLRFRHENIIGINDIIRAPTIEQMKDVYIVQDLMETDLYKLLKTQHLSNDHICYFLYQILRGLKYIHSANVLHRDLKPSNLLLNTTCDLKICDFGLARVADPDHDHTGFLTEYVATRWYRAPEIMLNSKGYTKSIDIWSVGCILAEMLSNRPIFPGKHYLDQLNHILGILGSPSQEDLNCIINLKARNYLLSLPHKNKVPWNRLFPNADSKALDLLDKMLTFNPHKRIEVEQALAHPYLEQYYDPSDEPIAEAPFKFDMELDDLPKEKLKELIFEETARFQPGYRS
ASSAY PROCEDURE: ERK2 enzyme assay (2)
Format: biochemical
CONDITION LABEL: ERK2 enzyme assay (2); read-out: ERK2 enzyme inhibitory activity (2)
OBSERVATION TYPE: IC50

compound=COc1c(-c2cnn(C)c2)cnc2ccc(Nc3nnc(C4CCCC4)s3)nc12 target="GST fusion human ERK2 protein (Homo sapiens, UniProt P28482)" observed="< 1000 nM"
compound=c1cnnc(Nc2ccc3ncc(-c4cnn(CCCN5CCOCC5)c4)cc3n2)c1 target="GST fusion human ERK2 protein (Homo sapiens, UniProt P28482)" observed="< 1000 nM"
compound=CC(C)c1cnnc(Nc2ccc3ncc(-c4cn(C)nc4Cl)cc3n2)c1 target="GST fusion human ERK2 protein (Homo sapiens, UniProt P28482)" observed="< 1000 nM"
compound="CC(C)c1cnnc(Nc2ccc3ncc(N4CCC(N5CCCC5)C4)cc3n2)c1 (centres unmarked)" target="GST fusion human ERK2 protein (Homo sapiens, UniProt P28482)" observed="1000 to 10000 nM"
compound=CCOC(=O)N1CCN(CCCn2cc(-c3cnc4ccc(Nc5cc(C(C)C)cnn5)nc4c3)cn2)CC1 target="GST fusion human ERK2 protein (Homo sapiens, UniProt P28482)" observed="< 1000 nM"

Which IC50 is listed for CC(C)c1cnnc(Nc2ccc3ncc(-c4cnn(CCC5CCOCC5)c4)cc3n2)c1 ?
< 1000 nM

Request: CCOC1CN(CCCn2cc(-c3cnc4ccc(Nc5cc(C(C)C)cnn5)nc4c3)cn2)C1
< 1000 nM

Request: CC(C)c1cnnc(Nc2ccc3ncc(-c4cnn(CC5CCN(C(=O)N6CCCCC6)CC5)c4)cc3n2)c1
< 1000 nM

Request: CC(C)c1cnnc(Nc2ccc3ncc(-c4cn(C)nc4CN(C)c4cccnc4)cc3n2)c1
< 1000 nM

Request: CC(C)c1cnnc(Nc2ccc3ncc(-c4cccn(C)c4=O)cc3n2)c1
< 1000 nM

Request: CC(C)c1cnnc(Nc2ccc3ncc(-c4cn(C)nc4-c4ccc(OCCN(C)C)cc4)cc3n2)c1
< 1000 nM

Request: FC1(F)CCN(CCCn2cc(-c3cnc4ccc(Nc5nnc(C6CCCC6)s5)nc4c3)cn2)CC1
< 1000 nM

Request: CC(C)c1cnnc(Nc2ccc3ncc(-c4cn(C)nc4C4CN(C(=O)OC(C)(C)C)C4)cc3n2)c1
< 1000 nM

Request: Cc1nn(C)cc1-c1cnc2ccc(Nc3nnc(C4CCCC4)s3)nc2c1
< 1000 nM

Request: Cn1cc(-c2cnc3ccc(Nc4cc(C(C)(C)C)cnn4)nc3c2)cn1
< 1000 nM

Request: Cc1cnnc(Nc2ccc3nccc(-c4cnn(C)c4)c3n2)c1
1000 to 10000 nM

Request: CCC1CN(CCCn2cc(-c3cnc4ccc(Nc5cc(C(C)C)cnn5)nc4c3)cn2)CCO1 (centres unmarked)
< 1000 nM

---

TARGET: human PI3Kα protein (Homo sapiens)
Construct: purchased Carna Biosciences, Inc; host or cells: baculovirus expression system
ASSAY PROCEDURE: PI3Kα enzyme assay (ADP-Glo)
Format: biochemical
CONDITION LABEL: read-out: PI3Kα enzyme inhibitory activity
OBSERVATION TYPE: IC50

compound="Cn1cc(-c2cnc3ccc(Nc4cc(C(C)(C)CO)cnn4)nc3c2)cn1 [Example 0560]" observation_type=IC50 observed="< 1 µM"
compound="CC(C)c1cnnc(Nc2ccc3ncc(-c4cnn(CC5CCN(S(C)(=O)=O)CC5)c4)cc3n2)c1 [Example 0530]" observation_type=IC50 observed="< 1 µM"
compound="c1nc2ccc(Nc3nnc(C4CCOCC4)s3)nc2cc1-c1cnn(CCCN2CCCC2)c1 [Example 0245]" observation_type=IC50 observed="< 1 µM"
compound="CC(C)c1cnnc(Nc2ccc3ncc(N(C)C)cc3n2)c1 [Example 0627]" observation_type=IC50 observed="1 to 10 µM"

Request body: readout IC50, system human PI3Kα protein (Homo sapiens), query CCN(CCO)c1cnnc(Nc2ccc3ncc(-c4cnn(C)c4)cc3n2)c1 [Example 0525] . Return the value.
< 1 µM

Request: CC(C)c1cnnc(Nc2ccc3ncc(N4C[C@@H](C)O[C@@H](C)C4)cc3n2)c1 [Example 0873]
< 1 µM

Request: CC(C)c1cnnc(Nc2ccc3ncc(-c4cn(C)nc4NC4CCOC4)cc3n2)c1 (centres unmarked) [Example 0940]
< 1 µM

Request: CC(C)c1cnnc(Nc2ccc3ncc(-c4cnn(-c5ccncc5)c4)cc3n2)c1 [Example 0399]
1 to 10 µM

Request: Cn1cc(-c2cnc3ccc(Nc4cc(C(C)(C)C)cnn4)nc3c2)cn1 [Example 0526]
< 1 µM

Request: CC(C)c1cnnc(Nc2ccc3ncc(-c4cnn([C@H]5CCN(C)C5)c4)cc3n2)c1 [Example 0492]
< 1 µM

Request: O[C@@H]1CCN(c2cnc3ccc(Nc4nnc(C5CCCC5)s4)nc3c2)C1 [Example 0313]
1 to 10 µM

Request: CO[C@H]1CC[C@H](Cn2cc(-c3cnc4ccc(Nc5cc(C(C)C)cnn5)nc4c3)cn2)CC1 [Example 0522]
< 1 µM

Request: c1n[nH]cc1-c1cnc2ccc(Nc3nnc(C4CCCC4)s3)nc2c1 [Example 0201]
1 to 10 µM

Request: CC(C)c1cnnc(Nc2ccc3ncc(-c4cnn(Cc5ccncc5)c4)cc3n2)c1 [Example 0381]
< 1 µM

Request: CC1CN(CCCn2cc(-c3cnc4ccc(Nc5cc(C(C)C)cnn5)nc4c3)cn2)C(C)CO1 (centres unmarked) [Example 0674]
< 1 µM

Request: CCOc1c(-c2cnn(C)c2)cnc2ccc(Nc3cc(C(C)C)cnn3)nc12 [Example 0951]
< 1 µM

Request: COc1cc(-c2cnc3ccc(Nc4nnc(C5CCCC5)s4)nc3c2)ccc1O [Example 0202]
10 to 50 µM

---

TARGET: human PI3Kα protein (Homo sapiens, UniProt P42336)
Construct: purchased Carna Biosciences, Inc; host or cells: baculovirus expression system
Sequence (P42336 whole entry): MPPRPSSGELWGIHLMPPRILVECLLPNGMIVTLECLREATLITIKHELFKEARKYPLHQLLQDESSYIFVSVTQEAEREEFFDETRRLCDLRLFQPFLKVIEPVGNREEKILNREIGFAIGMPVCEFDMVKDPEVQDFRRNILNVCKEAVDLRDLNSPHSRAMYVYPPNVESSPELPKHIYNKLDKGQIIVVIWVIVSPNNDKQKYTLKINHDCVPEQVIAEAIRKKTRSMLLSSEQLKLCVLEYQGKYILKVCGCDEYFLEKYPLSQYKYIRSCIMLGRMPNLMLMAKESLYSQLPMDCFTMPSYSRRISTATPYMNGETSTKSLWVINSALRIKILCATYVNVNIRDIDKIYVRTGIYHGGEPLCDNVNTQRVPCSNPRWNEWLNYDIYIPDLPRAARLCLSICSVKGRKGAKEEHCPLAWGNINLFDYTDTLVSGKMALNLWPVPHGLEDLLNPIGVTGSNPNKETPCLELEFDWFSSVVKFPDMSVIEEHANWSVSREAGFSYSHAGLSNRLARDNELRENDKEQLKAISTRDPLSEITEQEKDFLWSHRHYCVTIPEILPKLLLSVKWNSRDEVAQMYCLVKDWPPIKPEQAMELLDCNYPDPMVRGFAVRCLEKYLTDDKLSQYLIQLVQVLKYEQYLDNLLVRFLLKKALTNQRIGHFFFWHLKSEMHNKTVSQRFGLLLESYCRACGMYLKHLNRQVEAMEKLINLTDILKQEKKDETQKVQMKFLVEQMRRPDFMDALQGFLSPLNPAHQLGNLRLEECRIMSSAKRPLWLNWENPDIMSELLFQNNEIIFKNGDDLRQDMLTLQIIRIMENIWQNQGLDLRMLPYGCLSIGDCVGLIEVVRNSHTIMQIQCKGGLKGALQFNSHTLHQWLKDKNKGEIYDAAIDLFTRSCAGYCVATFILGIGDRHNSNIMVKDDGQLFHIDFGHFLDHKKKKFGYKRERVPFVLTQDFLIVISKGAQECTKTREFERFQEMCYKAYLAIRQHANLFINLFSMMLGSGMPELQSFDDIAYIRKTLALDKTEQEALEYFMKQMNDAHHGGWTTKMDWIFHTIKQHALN
Sequence (P27986 whole entry partner): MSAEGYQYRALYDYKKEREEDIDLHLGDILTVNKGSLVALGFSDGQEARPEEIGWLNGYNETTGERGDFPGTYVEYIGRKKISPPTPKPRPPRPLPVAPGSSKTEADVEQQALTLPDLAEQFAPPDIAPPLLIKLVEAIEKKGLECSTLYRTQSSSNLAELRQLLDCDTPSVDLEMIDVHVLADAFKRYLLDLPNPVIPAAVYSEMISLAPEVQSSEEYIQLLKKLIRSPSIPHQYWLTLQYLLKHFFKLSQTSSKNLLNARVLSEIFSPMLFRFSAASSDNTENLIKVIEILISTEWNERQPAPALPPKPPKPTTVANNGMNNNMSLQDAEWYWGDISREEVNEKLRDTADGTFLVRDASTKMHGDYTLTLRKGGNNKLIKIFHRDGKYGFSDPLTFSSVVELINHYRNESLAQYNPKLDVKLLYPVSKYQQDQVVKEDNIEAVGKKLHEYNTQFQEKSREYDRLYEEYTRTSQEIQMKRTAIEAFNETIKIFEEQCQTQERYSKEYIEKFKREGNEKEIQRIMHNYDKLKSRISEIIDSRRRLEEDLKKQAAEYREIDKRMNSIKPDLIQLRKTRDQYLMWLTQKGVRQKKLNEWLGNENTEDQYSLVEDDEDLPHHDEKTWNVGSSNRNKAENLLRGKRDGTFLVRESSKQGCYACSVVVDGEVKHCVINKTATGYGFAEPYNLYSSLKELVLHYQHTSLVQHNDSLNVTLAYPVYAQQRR
ASSAY PROCEDURE: PI3Kα enzyme assay (ADP-Glo)
Assay type: biochemical
CONDITION LABEL: 4.5 nmol/L PI3Kα, PIP2 50 μmol/L, ATP 100 μmol/L; read-out: PI3Kα enzyme inhibitory activity
pIC50: −log10 of the molar value.
Recorded pIC50 for the following molecules

molecule="CC(C)c1nnc(Nc2ccc3ncc(-c4cn(C)nc4-c4ccccc4)cc3n2)s1 [Example 0124]" target="human PI3Kα protein (Homo sapiens, UniProt P42336)" observed="> 6.00"
molecule="COc1ccc(-c2cnc3ccc(Nc4nc(C)cs4)nc3c2)cc1OC [Example 0024]" target="human PI3Kα protein (Homo sapiens, UniProt P42336)" observed="5.00 to 6.00"
molecule="c1nc2ccc(Nc3cc(C4CCCCC4)cnn3)nc2cc1-c1cnn(CCCN2CCCC2)c1 [Example 0017]" target="human PI3Kα protein (Homo sapiens, UniProt P42336)" observed="> 6.00"
molecule="Cc1nnc(Nc2ccc3ncc(Nc4cnn(C)c4)cc3n2)s1 [Example 0184]" target="human PI3Kα protein (Homo sapiens, UniProt P42336)" observed="5.00 to 6.00"
molecule="CC(C)c1nnc(Nc2ccc3nccc(Nc4cccnc4)c3n2)s1 [Example 0006]" target="human PI3Kα protein (Homo sapiens, UniProt P42336)" observed="> 6.00"
molecule="Cn1cc(-c2cnc3ccc(Nc4nnc(CCc5ccccc5)s4)nc3c2)cn1 [Example 0171]" target="human PI3Kα protein (Homo sapiens, UniProt P42336)" observed="4.30 to 5.00"
molecule="Cn1cc(-c2cnc3ccc(Nc4ncc(C5CCCC5)s4)nc3c2)cn1 [Example 0127]" target="human PI3Kα protein (Homo sapiens, UniProt P42336)" observed="5.00 to 6.00"
molecule="CCOC(=O)c1cnc(Nc2ccc3ncc(-c4cnn(C)c4)cc3n2)s1 [Example 0035]" target="human PI3Kα protein (Homo sapiens, UniProt P42336)" observed="> 6.00"

Then this molecule:
Which pIC50 is listed for COc1cccc(Nc2ccnc3ccc(Nc4nnc(C(C)C)s4)nc23)c1 [Example 0012] ?
> 6.00

---

Recorded pIC50 for the following molecules
TARGET: GST fusion human ERK2 protein (Homo sapiens, UniProt P28482)
Construct: purchased Carna Biosciences, Inc; host or cells: E. coli expression system
ASSAY PROCEDURE: ERK2 enzyme assay (2)
Assay type: biochemical
CONDITION LABEL: ERK2 enzyme assay (2); read-out: ERK2 enzyme inhibitory activity (2)
pIC50: −log10 of the molar value.

Reference set (4 entries):
molecule=CC(C)c1cnnc(Nc2ccc3ncc(NC4(C)CCC4)cc3n2)c1 observed="5.00 to 6.00"
molecule=CO[C@H]1CCC[C@@H]1Nc1cnc2ccc(Nc3cc(C(C)C)cnn3)nc2c1 observed="5.00 to 6.00"
molecule="CC(C)c1cnnc(Nc2ccc3ncc(-c4cnn(CC(F)CN5CCCC5)c4)cc3n2)c1 (centres unmarked)" observed="> 6.00"
molecule=CC(C)c1cnnc(Nc2ccc3ncc(-c4cnc(N5CCN(C)CC5)s4)cc3n2)c1 observed="> 6.00"

Which pIC50 is listed for Cc1cc(-c2nn(C)cc2-c2cnc3ccc(Nc4cc(C(C)C)cnn4)nc3c2)ccn1 ?
> 6.00

Request: CC(C)c1cnnc(Nc2ccc3ncc(-c4cnn(CC(O)CN5CCOCC5)c4)cc3n2)c1 (centres unmarked)
> 6.00

Request: COC1CN(CC(Cn2cc(-c3cnc4ccc(Nc5cc(C(C)C)cnn5)nc4c3)cn2)OC)C1 (centres unmarked)
> 6.00

Request: COc1ccc(-c2nn(C)cc2-c2cnc3ccc(Nc4cc(C(C)C)cnn4)nc3c2)cn1
> 6.00
